Values from paper PMC7532178

# Kd per entry
Molecular target: T1, harmonin-PDZ2 (aa residues 197-308) (UniProt Q9ES64 197-308)
T1 construct: extra 7 aa at the N-terminus of all recombinant proteins of the study; harmonin, residues 197-308 (PDZ2), numbers on GenBank AF228925.1; also called PDZ2 domain of harmonin; source: E. coli BL21 (DE3) codonPlus-RIPL, purified (Glutathione Sepharose 4B, GST removed by TEV proteinase, SEC)
T1 sequence: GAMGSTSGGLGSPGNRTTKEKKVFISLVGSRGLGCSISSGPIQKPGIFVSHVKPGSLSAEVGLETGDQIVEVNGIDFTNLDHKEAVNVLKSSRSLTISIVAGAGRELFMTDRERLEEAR
Assay: SPR; harmonin fragments or full-length harmonin-a1 with C-terminal peptides; Fig. S10 and data not shown
Conditions: both partners purified
No end group written: not given here. *: point of attachment. Biotin = O=C1N[C@H]2[C@H](CS[C@H]2CCCCC(=O)*)N1; TTDS = trioxatridecan-succinamic acid spacer

binder	Kd
{Biotin-TTDS}-GIDVQPHSQSTSL (C-terminal 13 aa of protocadherin-15 isoform CD1, including the PBM; source: synthetic peptide (Eurogentec); not shown: biotin, N-terminal, kept) [PCDH15-CD1 C-terminal peptide (biotin-TTDS-GIDVQPHSQSTSL)]	> 200 µM
{Biotin-TTDS}-MGPWNSLHIPMTKL (C-terminal 14 aa of protocadherin-15 isoform CD3, including the PBM; source: synthetic peptide (Eurogentec); not shown: biotin, N-terminal, kept) [PCDH15-CD3 C-terminal peptide (biotin-TTDS-MGPWNSLHIPMTKL)]	> 200 µM
{Biotin-TTDS}-GANSEQYNTAL (C-terminal 11 aa of protocadherin-15 isoform CD2, including the PBM; source: synthetic peptide (Eurogentec); not shown: biotin, N-terminal, kept) [PCDH15-CD2 C-terminal peptide (biotin-TTDS-GANSEQYNTAL)]	> 200 µM
